Sourced from PubChem BioAssay AID686979

test: qHTS for Inhibitors of human tyrosyl-DNA phosphodiesterase 1 (TDP1): qHTS in cells in presence of CPT; conditions: chicken DT40 Tdp1-/-;hTDP1 cells + 20 nM CPT, ATP luminescence, 48 h; series mostly up to 46.2 µM; also: nearly all actives have a fitted effect of over 55% in size
About 50,000 (12%) of roughly 420,000 compounds were called active. Roughly 26% stayed inconclusive and do not appear here. Calls follow the shape of the dose curve; as a rule, active = well fitted inhibition curve with a large enough effect; inconclusive = small, poorly fitted or top-dose-only effect; inactive = flat fitted curve, though single readings scatter. What follows is part of a selection rich in actives, with near analogues and random picks from the rest.
Mark one answer only. Choices: class 1 (active), class 0 (inactive)

Problem: Hello, I am checking results. What call was entered for `COc1cccc(C(=O)Nc2nnc(S(=O)(=O)N(C)c3ccccc3)s2)c1` ?
Solution: class 0

Problem: Would you kindly repeat that for `Cc1nc2ccc(C(=O)N3CCN(c4ccccc4)CC3)cc2s1` ?
Solution: class 0

Problem: Would you kindly repeat that for CC(C)c1cc(Cn2c3ccccc3c(=O)n2C(C)Cn2cc(C3CC3)nn2)on1 (stereo not given) ?
Solution: class 0

Problem: Would you kindly repeat that for CCC1NC(=O)c2cccnc2-n2c1nc1ccc(C)cc1c2=O (stereo not given) ?
Solution: class 0

Problem: Would you kindly repeat that for `CCOC(=O)C1CCN(C(=O)Nc2cccc(OC)c2)CC1` ?
Solution: class 0

Problem: Would you kindly repeat that for COCC1CCCCN1C(=O)c1cc(COc2ccc(C)c(C)c2)on1 (stereo not given) ?
Solution: class 1

Problem: Would you kindly repeat that for `O=C(NCc1ccco1)c1cccc(-c2ccc3nncn3c2)c1` ?
Solution: class 0

Problem: Would you kindly repeat that for `Cc1ccc2nc3n(c(=O)c2c1)CCC3` ?
Solution: class 0

Problem: Would you kindly repeat that for `COc1cc(NC(=S)NNC(=O)CC(C)C)c(OC)cc1Cl` ?
Solution: class 0

Problem: Would you kindly repeat that for `Nc1nc(NCC(=O)O)nc(N2CCCCCC2)c1[N+](=O)[O-]` ?
Solution: class 0

###

experiment: qHTS for Inhibitors of human tyrosyl-DNA phosphodiesterase 1 (TDP1): qHTS in cells in presence of CPT; conditions: chicken DT40 Tdp1-/-;hTDP1 cells + 20 nM CPT, ATP luminescence, 48 h; series mostly up to 46.2 µM; also: nearly all actives have a fitted effect of over 55% in size; also: potency is read from the fitted curve at half-maximal effect
In all, about 420,000 compounds went through this assay and about 50,000 (12%) were called active. Not shown: some 26% with an inconclusive outcome. This is one part of a sample in which actives are shown more often than they occur.
property_label: Potency

>  <compound>
COc1ccccc1CNC(=O)CCn1c(=O)c2ccccc2n(CC(=O)Nc2ccc(Br)cc2F)c1=O

>  <Potency>
23.1 µM (active)

$$$$
>  <compound>
COc1ccc(C(=O)NCc2ccccc2C)cc1S(=O)(=O)NC1CCCC1

>  <Potency>
inactive

$$$$
>  <compound>
COc1ccc(CCNS(=O)(=O)c2cn(C)nc2C)cc1

>  <Potency>
inactive

$$$$
>  <compound>
CC1(C)Cc2ccccc2-c2[nH]c(=S)[nH]c(=O)c21

>  <Potency>
inactive

$$$$
>  <compound>
CCc1ccccc1N(C)C(=O)C1CCCN(c2ncnc3onc(-c4ccc(F)cc4)c23)C1 (centres undefined)

>  <Potency>
13 µM (active)

$$$$
>  <compound>
O=C(NC1=NCCS1)c1ccc(Cl)s1

>  <Potency>
inactive

$$$$
>  <compound>
CCOc1ccc(S(=O)(=O)N(CC(=O)O)c2ccccc2)cc1

>  <Potency>
inactive

$$$$
>  <compound>
O=C1N/C(=C/c2cccs2)C(=O)N1Cc1ccc(F)cc1

>  <Potency>
inactive

$$$$
>  <compound>
CCOc1ccc(N(Cc2ccccc2)C(=O)c2nc(SCC)ncc2Cl)cc1

>  <Potency>
29.1 µM (active)

$$$$
>  <compound>
CC(C)Oc1ccc(S(=O)(=O)N2CCOCC2)cc1NC(=O)C1CCCC1

>  <Potency>
inactive

$$$$

Problem: Potency lookup needed for `COc1ccc(-c2onc(C)c2C)cc1S(=O)(=O)NCC1CCN(Cc2cccc(F)c2)CC1` , thanks.
Solution: 20.6 µM (active)

Problem: Would you kindly repeat that for CC(C)C[C@H](NC(=O)C1CCC(CNC(=O)[C@@H]2CCCN2C(=O)OC(C)(C)C)CC1)C(=O)O (some centres undefined) ?
Solution: inactive

Problem: Would you kindly repeat that for `CC(=O)Nc1nc(C)c(-c2csc(Nc3ccc(S(N)(=O)=O)cc3)n2)s1` ?
Solution: inactive

Problem: Would you kindly repeat that for `COc1ccc(NC(=O)CCNC(=O)Cn2ccc3ccccc3c2=O)c(OC)c1` ?
Solution: inactive

Problem: Would you kindly repeat that for CCc1noc(C)c1C(=O)N1CCCC(N2CCN(c3ccc(F)cc3)CC2)C1 (centres undefined) ?
Solution: inactive

Problem: Would you kindly repeat that for `CCN(CCN(C)C)C(=O)c1ccc2nc(C)c(N(C)C(=O)CCc3ccccc3)n2c1` ?
Solution: inactive

Problem: Would you kindly repeat that for CC(=O)NC1=NN(C(C)=O)C(C)(c2ccc(Cl)s2)S1 (centres undefined) ?
Solution: 6.51 µM (active)

Problem: Would you kindly repeat that for `Clc1ccc(-n2nnnc2-c2cnc(-c3ccccn3)nc2-c2cccs2)cc1` ?
Solution: 6.51 µM (active)

Problem: Would you kindly repeat that for `CN=C(c1ccccc1)c1c(C)cccc1C` ?
Solution: inactive

Problem: Would you kindly repeat that for `CCCCn1c(N)c(N(CCC(C)C)C(=O)COC(=O)c2ccc(CC)cc2)c(=O)[nH]c1=O` ?
Solution: inactive

Problem: Would you kindly repeat that for CC1(C(=O)OCC(=O)Nc2ncc(Cl)cc2Cl)CC1(Cl)Cl (centres undefined) ?
Solution: inactive

Problem: Would you kindly repeat that for `COc1ccc(NC(=O)CNC(=O)Cn2ccc3ccccc3c2=O)c(OC)c1` ?
Solution: inactive

Problem: Would you kindly repeat that for `COc1ccc(C(=O)O)cc1S(=O)(=O)NC1CCN(Cc2ccccc2)CC1` ?
Solution: inactive

Problem: Would you kindly repeat that for `Cc1ccn2c(-c3csc(Nc4ccc(C(=O)O)cc4)n3)c(C)nc2c1` ?
Solution: inactive

Problem: Would you kindly repeat that for `Cc1cccc(N(CC(=O)N2CCCC2)S(C)(=O)=O)c1C` ?
Solution: inactive

###

test: qHTS for Inhibitors of human tyrosyl-DNA phosphodiesterase 1 (TDP1): qHTS in cells in presence of CPT; details: chicken DT40 Tdp1-/-;hTDP1 cells + 20 nM CPT, ATP luminescence, 48 h; series mostly up to 46.2 µM; also: nearly all actives have a fitted effect of over 55% in size; also: potency is read from the fitted curve at half-maximal effect
Screen size: about 420,000 compounds; about 50,000 (12%) were called active. Roughly 26% stayed inconclusive and do not appear here. The sample holds actives, similar compounds and a random draw of the others, so the mix is not that of the screen.
property_label: Potency

Consider the reported Potency for these compounds:
>  <compound>
O=C(O)CCc1cccnc1

>  <property_label>
Potency

>  <experimental_value>
inactive

$$$$
>  <compound>
COc1ccc(CCOC(=O)CNC(=O)c2ccc(Cl)cc2Cl)cc1

>  <property_label>
Potency

>  <experimental_value>
inactive

$$$$
>  <compound>
CCC(C(=O)NC1CCCCC1)N(C(=O)c1snc(C(N)=O)c1N)c1ccc(OC)cc1OC (centres undefined)

>  <property_label>
Potency

>  <experimental_value>
inactive

$$$$
>  <compound>
COc1cc(/C(=C/c2ccccc2)c2ccccc2)c2c(c1)oc1ccccc12

>  <property_label>
Potency

>  <experimental_value>
inactive

$$$$
>  <compound>
[2H]C(CCOS(N)(=O)=O)c1ccccc1 (centres undefined)

>  <property_label>
Potency

>  <experimental_value>
inactive

$$$$
>  <compound>
CCOc1ccc(NC(=O)CSc2c3c(nc4ccccc24)CCCC3)cc1

>  <property_label>
Potency

>  <experimental_value>
16.4 µM (active)

$$$$
>  <compound>
COc1ccc(NC(C)=O)cc1NC(=O)CN1CCN(c2ccccn2)CC1

>  <property_label>
Potency

>  <experimental_value>
inactive

$$$$
>  <compound>
O=C(Nc1ccccc1Cl)NC1(C(=O)N2CCOCC2)CCCCC1

>  <property_label>
Potency

>  <experimental_value>
inactive

$$$$
>  <compound>
COc1ccc(OC)c(-c2csc(-c3c(N)c(C(=O)c4ccccc4)n4ccccc34)n2)c1

>  <property_label>
Potency

>  <experimental_value>
inactive

$$$$
>  <compound>
COc1cccc(CNC(=O)CSc2c3c(nc4cc(Cl)ccc24)CCCC3)c1

>  <property_label>
Potency

>  <experimental_value>
23.1 µM (active)

$$$$

Turning to the following compound.
Problem: Potency lookup needed for `CCOC(=O)c1ccccc1NC(=O)CCc1c(C)nc2c(c1C)c(=O)n(C)c(=O)n2C` , thanks.
Solution: inactive

###

assay: qHTS for Inhibitors of human tyrosyl-DNA phosphodiesterase 1 (TDP1): qHTS in cells in presence of CPT; conditions: chicken DT40 Tdp1-/-;hTDP1 cells + 20 nM CPT, ATP luminescence, 48 h; series mostly up to 46.2 µM; also: nearly all actives have a fitted effect of over 55% in size
Among all 420,000 compounds or so, about 50,000 (12%) were called active. Inconclusive results (about 26%) are left out. Calls come from the whole dose curve; as a rule, active = well fitted inhibition curve with a large enough effect; inconclusive = small, poorly fitted or top-dose-only effect; inactive = flat fitted curve, though single readings scatter. This is one part of a sample in which actives are shown more often than they occur.
Mark one answer only. Choices: active, inactive

Problem: Hello, I am checking results. What call was entered for `O=C(Nc1ccc2c(c1)OCO2)c1cc(-c2cccc(Cl)c2)on1` ?
Solution: inactive

Problem: Would you kindly repeat that for CCC1Oc2ccccc2N(CC(=O)NCCCN2CCN(CC)CC2)C1=O (stereo not given) ?
Solution: inactive

Problem: Would you kindly repeat that for `O=C(COc1cccnc1[N+](=O)[O-])Nc1ccc(Cl)cc1F` ?
Solution: inactive

Problem: Would you kindly repeat that for COC(=O)CN1C(C)=Nc2ccc(Br)cc2C1c1ccccc1 (stereo not given) ?
Solution: inactive

Problem: Would you kindly repeat that for `CSc1ncc(Cl)c(C(=O)Nc2cc(C)ccc2C)n1` ?
Solution: inactive

Problem: Would you kindly repeat that for `COc1ccccc1OCCC(=O)OCC(=O)NCc1ccccc1` ?
Solution: inactive

Problem: Would you kindly repeat that for `CCCc1cc(=O)n2[nH]c(C)c(-c3ccc(Cl)cc3)c2n1` ?
Solution: active

Problem: Would you kindly repeat that for `Cc1cccc(CS(=O)(=O)c2ncc(Cl)c(C(=O)Nc3ccc(F)cc3)n2)c1` ?
Solution: active

Problem: Would you kindly repeat that for `C=CCn1c(CCNC(=O)c2cccs2)n[nH]c1=S` ?
Solution: inactive

Problem: Would you kindly repeat that for CCC(C)NC(=O)c1ccc(N2CCC3(CC2)OCCO3)c([N+](=O)[O-])c1 (stereo not given) ?
Solution: inactive

Problem: Would you kindly repeat that for `COc1ccc(C(=O)NC2CC2)cc1OC1CCN(Cc2cnn(C)c2)CC1` ?
Solution: inactive

Problem: Would you kindly repeat that for CCC(CC)C(=O)N1CC(=O)Nc2ccc(Br)cc2C1c1ccccc1 (stereo not given) ?
Solution: active

Problem: Would you kindly repeat that for `COCc1cc(=O)n2[nH]c(C)c(-c3ccccc3)c2n1` ?
Solution: inactive

Problem: Would you kindly repeat that for `COc1ccc(CCn2c3c(c(=O)[nH]c2=S)CN(C(C)C)CN3)cc1OC` ?
Solution: inactive

Problem: Would you kindly repeat that for COc1ccc(Cl)cc1NS(=O)(=O)c1cccc(C(=O)NC2CCC(O)CC2)c1 (stereo not given) ?
Solution: inactive

Problem: Would you kindly repeat that for CCc1[nH]nc(C(=O)N2CCCC(CNS(=O)(=O)c3cccs3)C2)c1C (stereo not given) ?
Solution: inactive

Problem: Would you kindly repeat that for `C=CCn1c(=NC(=O)c2ccc(S(=O)(=O)N3CCCC3)cc2)sc2cc(NC(C)=O)ccc21` ?
Solution: inactive

Problem: Would you kindly repeat that for COc1ccc(N2C(=O)CC(Sc3n[nH]c(-c4ccc(C)cc4)n3)C2=O)cc1 (stereo not given) ?
Solution: active

Problem: Would you kindly repeat that for `Brc1ccc(-c2noc(-c3ccccc3)n2)o1` ?
Solution: inactive

Problem: Would you kindly repeat that for O=C1CN(C(=O)c2ccccc2F)C(c2ccc(F)cc2)c2cc(F)ccc2N1 (stereo not given) ?
Solution: inactive

Problem: Would you kindly repeat that for `O=C(CCCN1C(=O)c2ccccc2C1=O)Oc1ccc(Cl)cc1` ?
Solution: inactive

Problem: Would you kindly repeat that for `Nc1ncnc2c1ncn2[C@@H]1O[C@H](C(=O)N2CCSC2)[C@@H](O)[C@H]1O` ?
Solution: inactive

Problem: Would you kindly repeat that for `COc1cc(=O)n2c(c1C(=O)N(C)Cc1nonc1C)CCN(C(=O)c1ccc(C)cc1C)CC2` ?
Solution: inactive

Problem: Would you kindly repeat that for `O=C(CO/N=C/c1ccccc1O)NNC(=O)c1ccccc1Cl` ?
Solution: active

Problem: Would you kindly repeat that for `CC(=O)N/C(=C/c1ccc(OC(F)F)cc1)C(=O)O` ?
Solution: inactive

Problem: Would you kindly repeat that for `C=CCNC(=O)c1ccc2nc(-c3ccco3)c(-c3ccco3)nc2c1` ?
Solution: active

Problem: Would you kindly repeat that for Cc1ccc2c(c1)C(c1ccccc1)N(C(=O)c1ccc(F)cc1)CC(=O)N2 (stereo not given) ?
Solution: inactive

Problem: Would you kindly repeat that for `O=C1c2ccccc2S(=O)(=O)N1Cc1c(F)cccc1Cl` ?
Solution: inactive

Problem: Would you kindly repeat that for CC1CCCCC12NC(=O)N(CC(=O)N1CCN(c3ccccc3)CC1)C2=O (stereo not given) ?
Solution: inactive

Problem: Would you kindly repeat that for `C=CCn1c(=NC(=O)c2cccs2)sc2cc(NC(C)=O)ccc21` ?
Solution: active
